- assay.target: mouse Δ1–24-L-PGDS (lipocalin type prostaglandin D synthase) (Mus musculus)
- Sequence (O09114 25-189): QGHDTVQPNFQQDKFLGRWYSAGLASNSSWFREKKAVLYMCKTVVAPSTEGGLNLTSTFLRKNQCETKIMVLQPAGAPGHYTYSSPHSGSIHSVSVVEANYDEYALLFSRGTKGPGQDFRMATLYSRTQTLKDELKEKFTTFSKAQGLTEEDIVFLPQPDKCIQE
Hi there, I'd appreciate the recorded Ki for every entry that follows.
Quick note: number first, unit second.

Reported Ki ( CCCCC[C@H](O)/C=C/[C@H]1[C@@H]2CO[C@@H](C2)[C@@H]1C/C=C\CCCC(=O)O [U-44069] ) = 30 µM

Reported Ki ( CCCCC[C@H](O)/C=C/[C@@H]1[C@@H](C/C=C\CCCC(=O)O)[C@H]2CO[C@@H]1C2 [U-46619] ) = 36 µM

====

- assay.target: mouse Δ1–24-L-PGDS (lipocalin type prostaglandin D synthase) (Mus musculus, UniProt O09114, H116A)
- assay.explanation: biochemical
metric.name: Kd
Quick note: number first, unit second.

Reported Kd ( CCCCC[C@H](O)/C=C/[C@H]1[C@@H]2CO[C@@H](C2)[C@@H]1C/C=C\CCCC(=O)O [U-44069] ) = 27.3 µM
